- target: T1, human TL1A (human, UniProt O95150 72-251, limits assumed)
- T1 construct: also called huTL1A; TNFSF15
- T1 sequence (looked up): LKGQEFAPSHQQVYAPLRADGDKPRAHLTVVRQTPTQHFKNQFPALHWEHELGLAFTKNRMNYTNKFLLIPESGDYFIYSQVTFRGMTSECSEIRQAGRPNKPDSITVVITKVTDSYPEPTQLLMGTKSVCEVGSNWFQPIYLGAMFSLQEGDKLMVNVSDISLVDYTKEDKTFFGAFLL
- measurement-notes: hybridoma screening after immunisation with recombinant human TL1A soluble protein; member named through Tables A, C and D
readout-type: binding result

binder	readout-type	result
88H9 (antibody, human IgG2, kappa, V domains shown, also called iPS 427485) VH: QVQLVESGAGVVQPGRSLRLSCAASGFTFSSYGMHWVRQAPGMGLEWVAVIWFDGSNEYYADSVKGRFTISRDNSKNTLYLQMNSLRAEDTAVYYCARERWFGELLDYWGQGTLVTVSS VL: DIQMTQSPSSLSASVGDRVTITCRASQGIRNDLGWYQEKPGKAPKRLIYAASGLQGGDPSRFSGSGSGTEFTLTISSLQPEDFATYYCLQHNSYPTWTFGQGTKVEIKR	binding result	binds
92E5 (antibody, human IgG2, kappa, V domains shown, also called iPS 427559) VH: EVHLLESGGGLVQPGGSLRLSCAASGFTFSSYAMSWVRQVPGKGLEWVSGISGRGGSTYYADSVKGRFTISRDNSKNTLYLQMDSLRAEDTAVYNCAIEVAGAFDIWGQGTMVTVSS VL: DIQMIQSPSSLSASVGDRVTITCRASQSISHYLNWYQQKPGKAPKFLIYAASSLQSGVPSRFSGSGSGTDFTLTISSLQPEDFATYYCQQSFSSITFGQGTRLEIKR	binding result	binds
73C2 (antibody, human IgG2, kappa, V domains shown, also called iPS 427544) VH: QVQLQQSGPGLVKPSQTLSLTCAISGDSVSSSSATWNWIRQSPSRGLEWLGRTYQRSKWNNDYAVSVKSRITINPDTSRNQFSLQLNSVTPEDTAVYYCAREVVAGPRWFDPWGQGTLVTVSS VL: DIQMTQSPSSLSASVGDRVTITCRASQSFSSYLNWYQQKPGKAPELLIYAASSLQSGVPSRFSGSGSGTDFTLTISSLQPEDFASYFCQQSYSTPRSFGQGTKLEIKR	binding result	binds
